Just for reference, patent US9328084B2 is where these values come from.

Exercise: for every item that follows, state its recorded CC50 at 3 days.
assay-summary: Cytotoxicity test on C8166 host cell (MTT colorimetry)
Format: cell-based
condition-info: human, C8166 cells (T lymphocyte cell line), read-out: toxicity (CC50) 1

Incoming: Entry COC(=O)c1cc2c(c(OC)c1-c1ccc(N(c3ccccc3)c3ccccc3)cc1)OCO2 [Compound 8] needs its CC50 at 3 days filled in; supply it.
Outgoing: 802 µM

Incoming: Entry COC(=O)c1cc2c(c(OC)c1-c1ccc(N(C)C)c(C)c1)OCO2 [Compound 6] needs its CC50 at 3 days filled in; supply it.
Outgoing: > 1250 µM

Incoming: Entry COC(=O)c1cc2c(c(OC)c1-c1ccc([N+](C)(C)Cc3ccccc3)cc1)OCO2.[Br-] [Compound 12] needs its CC50 at 3 days filled in; supply it.
Outgoing: 53.3 µM

Incoming: Entry COc1c2c(cc(C(=O)O)c1-c1ccc(N(C)C)cc1)OCO2 [Compound 9] needs its CC50 at 3 days filled in; supply it.
Outgoing: 649 µM

Incoming: Entry COC(=O)c1cc2c(c(OC)c1-c1ccc(N3CCOCC3)cc1)OCO2 [Compound 7] needs its CC50 at 3 days filled in; supply it.
Outgoing: 881 µM
